target: urokinase-type plasminogen activator (u-PA) (human, UniProt P00749 21-431, limits assumed); assay: cell-based or functional assay
acyl = not defined here
Quantity Name: u-PA:t-PA Selectivity

Observe how each entry below is paired with its result.
Binder: LGGYGRSANAILE [peptide LGGYGRSANAILE]
Endpoint Result: 0.018
//
Binder: acyl-GSGKS-NH2 (reading uncertain; also: acylated at the amino terminus (acyl group not given here)) [peptide GSGKS]
Endpoint Result: 121

The record that follows has no u-PA:t-PA Selectivity shown yet.
[in] Using the record for LGGSGRKASLSLE [peptide LGGSGRKASLSLE] , report its u-PA:t-PA Selectivity.
[out] 31
